Settings: human, plasma
endpoint-name: fraction unbound
Answer as a number with no unit attached.

Prompt line: Can you look up the measured fraction unbound of C[C@H]1O[C@@H](O[C@H]2[C@@H](O)C[C@H](O[C@H]3[C@@H](O)C[C@H](O[C@H]4CC[C@@]5(C)[C@H](CC[C@@H]6[C@@H]5C[C@@H](O)[C@]5(C)[C@@H](C7=CC(=O)OC7)CC[C@]65O)C4)O[C@@H]3C)O[C@@H]2C)C[C@H](O)[C@@H]1O [digoxin] for me?
Response line: 0.73

* * *

Settings: human, not told
endpoint-name: Papp (×10⁻⁶ cm/s)
The reply should be a number in ×10⁻⁶ cm/s, with the unit left off.

Prompt line: Look up Papp for this compound: `C[C@H]1O[C@@H](O[C@H]2[C@@H](O)C[C@H](O[C@H]3[C@@H](O)C[C@H](O[C@H]4CC[C@@]5(C)[C@H](CC[C@@H]6[C@@H]5C[C@@H](O)[C@]5(C)[C@@H](C7=CC(=O)OC7)CC[C@]65O)C4)O[C@@H]3C)O[C@@H]2C)C[C@H](O)[C@@H]1O`
Response line: 1.4

* * *

Conditions: human
endpoint-name: clearance

Prompt line: Would you kindly share the measured clearance for `C[C@H]1O[C@@H](O[C@H]2[C@@H](O)C[C@H](O[C@H]3[C@@H](O)C[C@H](O[C@H]4CC[C@@]5(C)[C@H](CC[C@@H]6[C@@H]5C[C@@H](O)[C@]5(C)[C@@H](C7=CC(=O)OC7)CC[C@]65O)C4)O[C@@H]3C)O[C@@H]2C)C[C@H](O)[C@@H]1O` ?
Response line: 0.48 mL/min/kg
